# System: Salmonella paratyphi
# TEST NAME: Antibacterial activity against Salmonella paratyphi assessed as zone of inhibition at 100 ug/well measured after 24 hrs by agar well diffusion method
# Type: functional, Salmonella enterica subsp. enterica serovar Paratyphi A
# APPLIED CONDITIONS: Salmonella enterica, read-out: DIZ
We use 9 mm as the dividing line for zone of inhibition at 100 µg/disc: on or above the line is Satisfied, below is Not satisfied.

Challenge: Quick check: does CC1(C)O[C@H]2O[C@@H]3COB(c4ccccc4C=O)O[C@@H]3[C@H]2O1 have zone of inhibition at 100 µg/disc greater than or equal to 9 mm?
Response given: Satisfied

Challenge: Also check CC1(C)O[C@H]2O[C@@H]3COB(c4ccc(/C=N/c5ccccc5)cc4)O[C@@H]3[C@H]2O1
Response given: Not satisfied

Challenge: Also check Cc1ccc(/N=C/c2ccc(B3OC[C@H]4O[C@@H]5OC(C)(C)O[C@@H]5[C@H]4O3)cc2)cc1
Response given: Not satisfied

Challenge: Also check CC1(C)O[C@H]2O[C@@H]3COB(c4ccc(C=O)cc4)O[C@@H]3[C@H]2O1
Response given: Satisfied

Challenge: Also check CN[C@@H]1[C@H](O[C@H]2[C@H](O[C@H]3[C@H](O)[C@@H](O)[C@H](N=C(N)N)[C@@H](O)[C@@H]3N=C(N)N)O[C@@H](C)[C@]2(O)C=O)O[C@@H](CO)[C@H](O)[C@H]1O.CN[C@@H]1[C@H](O[C@H]2[C@H](O[C@H]3[C@H](O)[C@@H](O)[C@H](N=C(N)N)[C@@H](O)[C@@H]3N=C(N)N)O[C@@H](C)[C@]2(O)C=O)O[C@@H](CO)[C@H](O)[C@H]1O.O=S(=O)(O)O.O=S(=O)(O)O.O=S(=O)(O)O [STREPTOMYCIN SULFATE]
Response given: Satisfied

Challenge: Also check CC(C)c1ccc(/N=C/c2ccc(B3OC[C@H]4O[C@@H]5OC(C)(C)O[C@@H]5[C@H]4O3)cc2)cc1
Response given: Not satisfied

Challenge: Also check CCOc1cccc(/C=N/c2cccc(B3OC[C@H]4O[C@@H]5OC(C)(C)O[C@@H]5[C@H]4O3)c2)c1O
Response given: Satisfied

Challenge: Also check CC1(C)O[C@H]2O[C@@H]3COB(c4cccc(N)c4)O[C@@H]3[C@H]2O1
Response given: Satisfied

Challenge: Also check COc1ccc(/C=N/c2cccc(B3OC[C@H]4O[C@@H]5OC(C)(C)O[C@@H]5[C@H]4O3)c2)c(O)c1
Response given: Not satisfied

Challenge: Also check CC1(C)O[C@H]2O[C@@H]3COB(c4cccc(/N=C/c5ccc6ccccc6c5O)c4)O[C@@H]3[C@H]2O1
Response given: Satisfied

Challenge: Also check CC1(C)O[C@H]2O[C@@H]3COB(c4cccc(/C=N/c5ccc(F)cc5)c4)O[C@@H]3[C@H]2O1
Response given: Satisfied

Challenge: Also check CC1(C)O[C@H]2O[C@@H]3COB(c4cccc(/C=N/c5ccccc5)c4)O[C@@H]3[C@H]2O1
Response given: Satisfied

meta.source: ChEMBL document CHEMBL3822364
